B1: glmS ribozyme (parent)
chain: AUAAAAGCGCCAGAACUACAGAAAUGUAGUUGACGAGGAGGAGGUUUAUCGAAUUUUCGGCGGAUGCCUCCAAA

Variants of: B1
assay_info: self-cleavage kobs at 2500 uM GlcN6P; higher = faster cleavage; RNA array
condition_summary: with glucosamine-6-phosphate
Fewer inactive variants are shown than the library holds.
measured_property: self-cleavage kobs at 2500 uM GlcN6P (s⁻¹)
Report the figure in s⁻¹ without appending any unit label.

sequence_chain	test_result
AUAAAAGCGCCAGAACUACAGAAAUGUAGUUGACGAGGAAGAGGUUUAUCGAAUUUACGGCGGAUGCCUCCAAA [G40A U57A]	3.99e-05
AUAAAAGCGCCAGAACUACAGAAAUGUAGUUGACGAGGAGAAGGUUUAUCGAAUUUUCGGCGGAUGCCUCCAAA [G41A]	0.00264
AUAAAAGCGCCAGUACUACAGAAAUGUAGUUGACGAGGACGAGGUUUAUCGAAUUUUCGGCGGAUCCCUCCAAA [A14U G40C G66C]	9.83e-05
AUAAAAGCGCCAGAGCUACAGAAAUGUAGUUGACGAGGAGGAGGUUUAUCGAAUUUUCGGCGGAAGCCUCAAAA [A15G U65A C71A]	0.000535
AUAAAAGCGCCAGAACUACAGAAAUGUAGCUGACGAGGAGGAGGUUUAUCGAAAUUUCGGCGGAUGCCUCCAAA [U30C U54A]	0.000182

Task item: # input variant: AUAAAAGCGCCAGAACUACAGAAAUGUAGUUGACGAGGAGGAGGGUUAUCGAAUUUUCGGCGGAUCCCUCCAAA [U45G G66C] ; wanted: its self-cleavage kobs at 2500 uM GlcN6P
Reply: 0.000927

Task item: # input variant: AUAAAAGCGCCAGAUCUACAGAAAUGUAGUUGACGAGGAGGAGGUUUAUCGAAUUGUCGGCGGAUGCCUCCAAA [A15U U56G] ; wanted: its self-cleavage kobs at 2500 uM GlcN6P
Reply: 0.00363

Cited source: the supplement of paper PMC7125110
